B1: glmS ribozyme (parent)
chain: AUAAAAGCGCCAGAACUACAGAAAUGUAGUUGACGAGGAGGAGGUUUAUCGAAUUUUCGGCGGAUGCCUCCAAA

- Variants of: B1
- TEST DETAILS: self-cleavage kobs at 640 uM GlcN6P; higher = faster cleavage; RNA array
- SETTINGS: with glucosamine-6-phosphate
Variants at the floor of the assay were thinned out.
# self-cleavage kobs at 640 uM GlcN6P listing for each entry below
QUANTITY: self-cleavage kobs at 640 uM GlcN6P (s⁻¹)

INSERT INTO assay_data (residues, unit_tag, inequality_operator, recorded_measurement) VALUES
  ('AUAAAAGCGCCAGAACUACAGAAAUGUAGUUGACGAGGGGGAGGUUUAUCGAAUUUUCGGCGGAUGCCUCCAAA [A39G]', 's⁻¹', '=', 0.0174),
  ('AUAAAAGCGCCAGAACUACAGAAAUGUAGUUGACGAGGAGGAGAUCUACCGAAGUUUCGGCGGAUGGCUCCAAA [G44A U46C U49C U54G C67G]', 's⁻¹', '<', '1e-05'),
  ('AUAAAACCGCCAGAACUACAGAAAUGUAGUUGACGAGGAGGAGGUUUGUCGAAGUUUCGGCGGAUGCCUCCAAA [G7C A48G U54G]', 's⁻¹', '<', '1e-05'),
  ('AUAAAAGCGCCAGCACUACAGAAAUGUAGUUGACGAGGAGGAGGUUUAUCGAAUUUUCGGCGAAUGCCUCCAAA [A14C G63A]', 's⁻¹', '<', '1e-05'),
  ('AUAAAAGCGCCAGUACUACAGAAAUGUAGUUGACGAGGCGGAGGUUUAUCGAAUUUUCGGCGGAUGCCUCCAAA [A14U A39C]', 's⁻¹', '=', 0.000203),
  ('AUAAAUGCGCCAGAACUACAGAAAUGUAGUUGACGAGUCGGAGGUUUAUCGAAUAUUCGGCGGAUGCCUCCAAA [A6U G38U A39C U55A]', 's⁻¹', '<', '1e-05'),
  ('AUAAAAGCGCCAGAACUACAGAAAUGUAGUUGACGAGGAAGAGGUUUAUCGAAUAUUCGGCGGAUGCCUCCAAA [G40A U55A]', 's⁻¹', '=', 0.00156),
  ('AUAAAAGCGCCAGAACUACAGACAUGUAGUUGACGAGGAGGAGGUUUAUCGGAUUUUCGGCGGAUGCCACCAAA [A23C A52G U69A]', 's⁻¹', '=', '9.59e-05'),
  ('AUAAAAGCGCCAGAACUACAGAAAUGUAGUUUACGAGGAGGGGGUUUAUCGAAUUUUCGGCGGAUUCUUCCAAA [G32U A42G G66U C68U]', 's⁻¹', '<', '1e-05'),
  ('AUAAAAGCGCCAGAACUACAGAAAUGUAGUUGACGAGGAGGAGGUUUAUCCAAUGUUCGGCGGAUGCCUCCAAA [G51C U55G]', 's⁻¹', '<', '1e-05'),
  ('AUAAAAGCGCCACUACUACAGAAAUGUAGUUGACGAGGAGGAGGUUUAUCGAAUUUUCGGCGGAUGCCUCCAAA [G13C A14U]', 's⁻¹', '=', '6.86e-05'),
  ('AUAAAAGCGCCAGAACUACAGAAAUGUAGUUGACGAGGAGGAGGUUUAUGGUAUUUUCGGCGGAUGCCUCCAAA [C50G A52U]', 's⁻¹', '<', '1e-05'),
  ('AUAAAACCGCCAGAACUACAGAAAUGUAGAUGACGAGGAGGAGGUUUAUCGAAUUUUCGGCGGAUGCCUCCAAA [G7C U30A]', 's⁻¹', '<', '1e-05'),
  ('AUAAAAGUGCCAGGACUACAGAAAUGUAGUUGACGAGGGGGAGGUUUAUCGAUGUUUCGGCGAAUGCCUCCAAA [C8U A14G A39G A53U U54G G63A]', 's⁻¹', '<', '1e-05'),
  ('AUAAAAGCGCCAGAACUACAGAAAUGUAGUUGACGAGGCGGAGGUUUAUCGAAUUUGCGGCGGAUGCCUCAAAA [A39C U57G C71A]', 's⁻¹', '<', '1e-05'),
  ('AUAAAAGCGCCAGAAAUACAGAAAUGUAGUUGACGAGGAGGAGGUUUAUCGAAUUUUCGGCGGAUGCCUGCAAA [C16A C70G]', 's⁻¹', '=', '3.86e-05'),
  ('AUAAAAGCGCCUGAACUACAGAAAUGUAGUUGACGAGGAGGAGGUUUAUCGAAUUUUCGGCGGCUGCCUCCAAA [A12U A64C]', 's⁻¹', '=', 0.000107),
  ('AUAAAAGCGCCAGAACUACAGAAAUGUAGUUGACGAGGAUGAGGUUUAUCGAAAUUUCGGCGGAUGCCUCCAAA [G40U U54A]', 's⁻¹', '=', 0.000391),
  ('AUAAAAGCGCCAGAACUACAGAAAUGUAGUUGACGAGGAGGAGGUUUAUCGAAUUUUCGGCGGAUGCCCCGAAA [U69C C71G]', 's⁻¹', '=', '6.76e-05'),
  ('AUAAAAGCAGCAGAACUACAGAAAUGUAGUUGACGAGGAGGAGAUUUAUCGAAUUUUCGGCGGAUGCCUUCAAA [G9A C10G G44A C70U]', 's⁻¹', '<', '1e-05'),
  ('AUAAAAGCGCCAGAACUACAGAAAUGUAGUUUACGAGGAGGAGGUUUAUAGAAUUUUCAGCGGAUGCCUCCAAA [G32U C50A G59A]', 's⁻¹', '<', '1e-05'),
  ('AUAAAGGCGCCAGAACUACAGAAAUGUAGUUGACGAGGAGGAGGUUUAUCGAAUUUUUGGCGGAUGCCACCAAA [A6G C58U U69A]', 's⁻¹', '=', 0.000521),
  ('AUAAAAGCGUCAGGACUACAGAAAUGUAGUUGACGAGGAGGAGGUUUAUCGAAUUUUCGGCGGAUGCCUCCAAA [C10U A14G]', 's⁻¹', '=', '5.02e-05'),
  ('AUAAAAGCGCCAGUACUACAGAAAUGUAGUUGACGAGGAGGAGGUUUAUGGAAUUUUCGGCGGAUGUCUCCAAA [A14U C50G C67U]', 's⁻¹', '=', 0.000192),
  ('AUAAAAGCGCAAGAACUACAGAAAUGUAGUUGACGAGGAGGAGGUUUAUCGAGUUUUCGGCGAAUGCCUCCAAA [C11A A53G G63A]', 's⁻¹', '<', '1e-05'),
  ('AUAAAAGCGCCAGCCCUACAGAAAUGUAGUUGACGAGGUUGAGGUUUACCGAAUUUUCGGCGGAUGCCUCCAAA [A14C A15C A39U G40U U49C]', 's⁻¹', '<', '1e-05'),
  ('AUAAAAUGGCCUGAACUACAGAAAUGUAGUUGACGAGGAGGAGGUUUAGCGAAUUUUCGGCGGAUGCCUCCAAA [G7U C8G A12U U49G]', 's⁻¹', '<', '1e-05'),
  ('AUAAAAGCGCCAGAACUACAGAAAUGUAGUUGGCGAGGGGAAGGUUUAUCGAAUUUUCGGCGGAUGCCUCCAAA [A33G A39G G41A]', 's⁻¹', '<', '1e-05'),
  ('AUAAAAGCCCCAGAACUACAGAAAUGUAGUUGACGAGGAGGAGGUGUAUCGAAUUUUCGGCGGAUGCCUCCAAA [G9C U46G]', 's⁻¹', '<', '1e-05'),
  ('AUAAAUGCGCCAGAACUACAGAAAUGUAGUUGACGAGGAGGAGGUUUAUCGAAUUUUCGGCGGAUGCCUCUAAA [A6U C71U]', 's⁻¹', '=', '5.53e-05'),
  ('AUAAAAGCGCCAGAACUACAGAAAUGUAGUUGACGAGGAGGAGGUGUAUCUAAUUUUCGGCGGAUGCCUCUAAA [U46G G51U C71U]', 's⁻¹', '<', '1e-05'),
  ('AUAAAAGCGCCAGAACUACAGAAAUGUAGUUGACGAGGAGGAGGUGUAUCGAAUUUUCGGCGCAUGCCUCCAAA [U46G G63C]', 's⁻¹', '<', '1e-05'),
  ('AUAAAAGCGCCAGAACUACAGAAAUGUAUUUGACGAAGAGGAGGUUUAUGGAAUUUUCGGCGGAUGCGUCCAAA [G29U G37A C50G C68G]', 's⁻¹', '=', 0.000384),
  ('AUAAAAGCGCCAGCACUACAGAAAUGUAGUGGACGAGGUGGAGGUUUAUCGAAUUUUCGGCGGAUGCCUCCAAA [A14C U31G A39U]', 's⁻¹', '=', 0.0016),
  ('AUAAAUGGGCCAGAACUACAGAAAUGUAGUUGUGGAGGAGGAGGUUUAUCGAAUUUUCGGCGGAUGCCGCCAAA [A6U C8G A33U C34G U69G]', 's⁻¹', '=', 0.000181),
  ('AUAAAUGCGCGAGAACUACAGAAAUGUAGUUGACGAGGAGGAGGUUUAUCGAAUUUUCGGCGGAUGCAUGCAAA [A6U C11G C68A C70G]', 's⁻¹', '<', '1e-05'),
  ('AUAAAAUCGCCAGAACUACAGAAAUGUAGUGGACGAGGAGGAGGUUUAUCGAAUUUUCGGCGGAUGCCUACAAA [G7U U31G C70A]', 's⁻¹', '=', 0.000541),
  ('AUAAAAGCGCCAGAACUACAGAAAUGUAAUUGACGAGGAGGAGGUUUAUCGAAUUUUCGGCGGAUGUCUCGAAA [G29A C67U C71G]', 's⁻¹', '=', '9.19e-05'),
  ('AUAAAAGCGCCAGAACUACAGAAAUGUAGUUGACGAGGACGAGGUUUAUCGAAGUUUCGGCGGAUGCCUCCAAA [G40C U54G]', 's⁻¹', '=', 0.000766),
  ('AUAAAAGCGCCAGAACUACAGAAAUGUAGUUGACGAGGAAAAGGUUUAUCGAAUUUUCGGCGGAUGCCUCAAAA [G40A G41A C71A]', 's⁻¹', '=', '6.52e-05'),
  ('AUAAAAUCGCCAGAACUACAGAAAUGUAGUUGACGAGGAGGAGGUUUAUCGAAUUUUCAGCGGAUGCCUCCAAA [G7U G59A]', 's⁻¹', '<', '1e-05'),
  ('AUAAAAACGCCAGAACUACAGAAAUGUAGUUCACGAGGAGGAGGUUUAUCUAAUUUUCGGCGGAUGCCUCCAAA [G7A G32C G51U]', 's⁻¹', '<', '1e-05'),
  ('AUAAAAGAGCCAGAACUACAGAAAUGUAGUUGACGAGGAGGAGGUUUAUCGAAUUUGCGGCGGAUGCCUCCAAA [C8A U57G]', 's⁻¹', '<', '1e-05'),
  ('AUAAAGGCGCCAGAACUACAGAAAUGUAGUUGACGAGGAGGAGGUUUAUGGAACUUUCGGCGGAUGCCUCCAAA [A6G C50G U54C]', 's⁻¹', '=', '5.17e-05'),
  ('AUAAAAGCGCUAGAACUACAGAAAUGUAGUUGACGAGGAGGAGGUUUAUCGAAUCUUCGGCGGAUGCCUCCAAA [C11U U55C]', 's⁻¹', '=', 0.00029),
  ('AUAAAAGCGCAAGAACUACAGAAAUGUAGUUGACGAGGAGGAGGUUUAUCGAAUUUUCGGCGGAUGCCCCCAAA [C11A U69C]', 's⁻¹', '=', '7.71e-05');
